# Target system: ETS1 (Homo sapiens, UniProt P14921 1-441)
# Sequence: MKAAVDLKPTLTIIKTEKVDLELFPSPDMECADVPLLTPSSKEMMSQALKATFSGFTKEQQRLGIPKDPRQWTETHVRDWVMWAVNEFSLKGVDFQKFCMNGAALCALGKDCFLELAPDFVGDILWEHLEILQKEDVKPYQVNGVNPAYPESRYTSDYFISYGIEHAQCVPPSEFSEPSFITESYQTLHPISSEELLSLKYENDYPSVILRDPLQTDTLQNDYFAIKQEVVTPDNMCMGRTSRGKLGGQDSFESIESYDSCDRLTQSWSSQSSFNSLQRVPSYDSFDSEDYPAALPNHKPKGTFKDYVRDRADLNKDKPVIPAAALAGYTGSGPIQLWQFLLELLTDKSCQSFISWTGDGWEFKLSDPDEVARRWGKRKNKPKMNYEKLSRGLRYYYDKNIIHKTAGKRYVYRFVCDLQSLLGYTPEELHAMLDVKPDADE
# Run description: custom PBM; custom protein-binding microarray; buffer, salt, pH and temperature not stated; high values mean tight binding
# Condition notes: dsDNA, one strand shown
Whole data set: some 1,300 sequences, median “log fluorescence intensity” near 8.3, cut for the highest 2% near 12. The full list was thinned out, with the highest values kept by preference.
Parameter measured: binding signal

INSERT INTO results (chain_sequence, reported_result) VALUES
  ('GCTGCTGCGGTGCATACCCCACCGGATGTGACCCAGGTCTTGATTCGCTTGACGCTGCTG', '10.3 log fluorescence intensity'),
  ('CGGAATTGTCGTAAACGTCGGATATCCGGTTCTTCTGTCTTGATTCGCTTGACGCTGCTG', '12.2 log fluorescence intensity'),
  ('GGAAAAAGGCCCAGGGTAACACCGGAACTGGGCTTAGTCTTGATTCGCTTGACGCTGCTG', '9.07 log fluorescence intensity'),
  ('TAAAGGGAAGACGGTTGTGGTAGTTCCGGGTATTACGTCTTGATTCGCTTGACGCTGCTG', '8.47 log fluorescence intensity'),
  ('CGGAAGTGTCGTAAACGTCGGATATCCGGTACTTCTGTCTTGATTCGCTTGACGCTGCTG', '11.8 log fluorescence intensity'),
  ('TAAAGGGAAGACGGTTGTGGTAGTTCCGGGTATTAGGTCTTGATTCGCTTGACGCTGCTG', '8.47 log fluorescence intensity'),
  ('GCTGCTACGGTGCATACCCCACCGGATGTGACCCCGGTCTTGATTCGCTTGACGCTGCTG', '10.3 log fluorescence intensity'),
  ('GCTGCTGCGGTGCATACCCCACCGGATGTGACCCTGGTCTTGATTCGCTTGACGCTGCTG', '10.1 log fluorescence intensity'),
  ('CAGCATAGGACTTCTTCCCTGAAGCAATTGATAACCGTCTTGATTCGCTTGACGCTGCTG', '8.39 log fluorescence intensity'),
  ('TAAAGGGAAGACGGTAGTGGTAGTTCCGGGTATTAAGTCTTGATTCGCTTGACGCTGCTG', '8.7 log fluorescence intensity'),
  ('CGGAAGTGTCGTAAACGTCGGTTATCCGGTTCTTCTGTCTTGATTCGCTTGACGCTGCTG', '9.21 log fluorescence intensity'),
  ('CAGCATAGGACTTCCTCCCTGAAGCAATTGATAACCGTCTTGATTCGCTTGACGCTGCTG', '12.7 log fluorescence intensity'),
  ('CGGAAGTGTCGTAAACGTCGCATATCCGGTTCTTCTGTCTTGATTCGCTTGACGCTGCTG', '12.2 log fluorescence intensity'),
  ('TCCGGCTACCAGCTGCACCCACTTCAGGCCTTGTAGGTCTTGATTCGCTTGACGCTGCTG', '8.44 log fluorescence intensity'),
  ('GCTGCTGCGCTGCATACCCCACCGGATGTGACCCCGGTCTTGATTCGCTTGACGCTGCTG', '10.1 log fluorescence intensity'),
  ('TCCGGCTACCAGCTCCACCCACTTCAGGCCTTGTAGGTCTTGATTCGCTTGACGCTGCTG', '8.36 log fluorescence intensity'),
  ('TAAAGGGAAGACGGTTGTGGTAGTTGCGGGTATTAAGTCTTGATTCGCTTGACGCTGCTG', '8.38 log fluorescence intensity'),
  ('GGAAAAAGGCCCAGGGTAACAGCGGAAGTGGGCTTAGTCTTGATTCGCTTGACGCTGCTG', '10.2 log fluorescence intensity');
